Assay system: Nuclear receptor subfamily 1 group I member 2 (Homo sapiens) (UniProt O75469)
Sequence (O75469 whole entry, looked up): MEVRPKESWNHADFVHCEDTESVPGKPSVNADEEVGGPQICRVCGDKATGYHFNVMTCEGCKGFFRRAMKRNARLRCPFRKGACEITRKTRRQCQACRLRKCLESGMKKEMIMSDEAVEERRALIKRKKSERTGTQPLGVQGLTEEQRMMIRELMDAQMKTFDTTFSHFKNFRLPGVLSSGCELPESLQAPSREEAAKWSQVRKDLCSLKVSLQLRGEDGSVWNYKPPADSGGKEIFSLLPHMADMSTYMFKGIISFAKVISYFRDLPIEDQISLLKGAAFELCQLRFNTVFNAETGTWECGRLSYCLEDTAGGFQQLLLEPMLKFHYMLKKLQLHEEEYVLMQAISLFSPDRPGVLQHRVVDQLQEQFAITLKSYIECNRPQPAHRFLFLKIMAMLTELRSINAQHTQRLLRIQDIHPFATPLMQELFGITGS
Protocol notes: Human pregnane X receptor (PXR) small molecule agonists, qHTS assay (AID 1346982); note: nearly all actives have a fitted effect of over 35% in size
Reported conditions: PXR-Luc HepG2, CYP3A4 luciferase reporter, 24 h; series mostly up to 92.4 µM
Inconclusive results are not listed. Calls of active or inactive are those of the source. Calls come from the whole dose curve; as a rule, active = well fitted activation curve with a large enough effect in the repeat runs; inconclusive = weak or mixed curves; inactive = no such curve, though single readings can be large or run the other way.
Answer with one of the outcomes given here: yes (1) for active, no (0) for inactive

Example entries begin here.
[
  {
    "Molecule": "CCC/C=C/CO",
    "Assigned category": "no (0)"
  },
  {
    "Molecule": "CC(=O)OC(C)OC(C)=O",
    "Assigned category": "no (0)"
  },
  {
    "Molecule": "CCc1cc(Cl)c(OC)c(C(=O)NC[C@@H]2CCCN2CC)c1O",
    "Assigned category": "yes (1)"
  },
  {
    "Molecule": "FC(F)(F)c1ccccc1",
    "Assigned category": "no (0)"
  },
  {
    "Molecule": "CN1CCN(c2c(F)cc3c(=O)c(C(=O)O)cn4c3c2SCC4)CC1",
    "Assigned category": "no (0)"
  }
]

Problem: Hi, sorry to bother you, what did the test record for O=C1Nc2ccc([N+](=O)[O-])cc2C1=O ?
Result: no (0)

Problem: Hi, sorry to bother you, what did the test record for NC/C=C/C(=O)O ?
Result: no (0)

Problem: Hi, sorry to bother you, what did the test record for C[C@@H](N)C(=O)O ?
Result: no (0)

Problem: Hi, sorry to bother you, what did the test record for CCOC(=O)[C@H](CCc1ccccc1)N[C@@H](C)C(=O)N1Cc2cc(OC)c(OC)cc2C[C@H]1C(=O)O ?
Result: no (0)

Problem: Hi, sorry to bother you, what did the test record for CN1CCN(C2=Nc3ccccc3Oc3ccc(Cl)cc32)CC1 ?
Result: yes (1)

Problem: Hi, sorry to bother you, what did the test record for CC(C)C(=O)OC/C=C/c1ccccc1 ?
Result: no (0)

###

Protocol notes: qHTS RealTime-Glo MT Cell Viability Assay in HEK293 cells - 32 hour (AID 1224868); note: top concentration of the series differs between compounds; nearly all actives have a fitted effect of over 50% in size
Reported conditions: RealTime-Glo luminescence; series mostly up to 76.8 µM
Inconclusive results are not listed. Active and inactive are the calls of the source. Calls follow the shape of the dose curve; as a rule, active = well fitted cell-killing curve with a large enough effect in the repeat runs; inconclusive = weak or mixed curves, or effect the other way; inactive = flat fitted curve, though single readings scatter.
Answer with one of the outcomes given here: True = active, False = inactive

[
  {
    "Molecule": "O=C(O)c1cccc(Cl)c1Cl",
    "Assigned category": "False"
  },
  {
    "Molecule": "CN1CCN(c2c(F)cc3c(=O)c(C(=O)O)cn4c3c2SCC4)CC1",
    "Assigned category": "False"
  },
  {
    "Molecule": "C[C@@H](N)C(=O)O",
    "Assigned category": "False"
  },
  {
    "Molecule": "Cn1cnc2c(F)c(Nc3ccc(Br)cc3Cl)c(C(=O)NOCCO)cc21",
    "Assigned category": "False"
  }
]

Let us examine a further case.
Problem: Hi, sorry to bother you, what did the test record for CC(C)O ?
Result: False

###

Protocol notes: qHTS assay to identify small molecule agonists of the estrogen receptor alpha (ER-alpha) signaling pathway in the presence of an antagonist - cell viability counter screen (AID 1259386);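 note: cells exposed to compounds for 22 h at 37 °C before the viability read; nearly all actives have a fitted effect of over 30% in size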
Reported conditions: VM7Luc4E2 viability, CellTiter-Fluor fluorescence, 22 h; series mostly up to 92.4 µM
Records with an inconclusive call do not appear. Activity calls are given as the source filed them. The call rests on the fitted dose curve; in most records, active means well fitted cell-killing curve with a large enough effect in the repeat runs; inconclusive means weak or mixed curves, or effect the other way; inactive means no such curve, though single readings can be large or run the other way.
Measurement name: activity change, negative = cytotoxicity

In the examples that follow, each entry is paired with its recorded activity change, negative = cytotoxicity.
[
  {
    "Compound": "N#Cc1ccc(C(c2ccc(C#N)cc2)n2cncn2)cc1",
    "Readout value": "inactive"
  },
  {
    "Compound": "COC(=O)C(C)O (configuration not stated)",
    "Readout value": "inactive"
  },
  {
    "Compound": "CCCc1c2oc(C(=O)O)cc(=O)c2cc2c(=O)cc(C(=O)O)n(CC)c12",
    "Readout value": "inactive"
  },
  {
    "Compound": "CC(C)=CCC[C@](C)(O)[C@@H]1CC=C(C)CC1",
    "Readout value": "inactive"
  },
  {
    "Compound": "Cc1ccsc1C(=CCCN1CCC[C@@H](C(=O)O)C1)c1sccc1C",
    "Readout value": "inactive"
  }
]

Consider now this further compound.
Problem: Given the compound CCCCc1ccc2nc(NC(=O)OC)[nH]c2c1 , what is its reported activity change, negative = cytotoxicity?
Result: inactive
